Numbers sourced from the supplement of paper PMC10981050.

cell viability listing for selected compounds.
# System: K562;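 note: after 48 h exposure read by CellTiter-Glo luminescence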
# assay-name: cell viability relative to vehicle control; higher = less cytotoxic
# condition-set: 10 µM; SRSF2 genotype: SRSF2 wt/wt
Give the value in % but do not write % after it.

State the recorded cell viability for this entry: COC(=O)CCC(C)C1CCC2C3C(O)CC4CC(O)CCC4(C)C3CC(O)C12C (stereo not drawn) [Methyl Cholate]
101

Similarly, OC1COC(O)C(O)C1O (stereo not drawn) [L(+)-Arabinose] ?
96.7

Similarly, `COc1ccc(-c2nc(-c3cc(C(F)(F)F)cc(C(F)(F)F)c3)n(Cc3ccc(C(N)=O)cc3)c2-c2ccc(OC)cc2)cc1` ?
80.8

Similarly, Cn1cnc2c(F)c(Nc3ccc(Br)cc3Cl)c(C(=O)NOCCO)cc21 [AZD6244 (Selumetinib)] ?
75.3

Next compound, cell viability to be filled in.
State the recorded cell viability for this entry: Cc1nc2n(c(=O)c1CCN1CCC(c3noc4cc(F)ccc34)CC1)CCCC2O (stereo not drawn)
80.7

----------
# System: K562;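 note: after 48 h exposure read by CellTiter-Glo luminescence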
# assay-name: cell viability relative to vehicle control; higher = less cytotoxic
# condition-set: 10 µM; SRSF2 genotype: SRSF2 wt/wt
Structures can show the parent of a compound that is named as a salt.
cell viability listing for selected molecules.
Give the value in % but do not write % after it.

// worked examples, cell viability included
State the recorded cell viability for this entry: CC(C(=O)O)c1cccc(Oc2ccccc2)c1 (stereo not given) [Fenoprofen calcium hydrate]
99.4

Similarly, `O=C(c1ccc(F)c(F)c1Nc1ccc(I)cc1F)N1CC(O)([C@@H]2CCCCN2)C1` ?
35.5

Similarly, `C[C@H](CCC(=O)O)[C@H]1CC[C@H]2[C@@H]3CC[C@@H]4C[C@H](O)CC[C@]4(C)[C@H]3C[C@H](O)[C@]12C` ?
87.3

Similarly, `Cn1c(O)c(C2=c3ccccc3=NC2=O)c2ccccc21` ?
43.4

Similarly, `Nc1nc(-c2ccco2)c2cnn(Cc3ccccc3F)c2n1` ?
72.9

Similarly, `C=CC(=O)Nc1ccc2ncnc(Nc3ccc(OCc4cccc(F)c4)c(Cl)c3)c2c1` ?
60

Similarly, NCc1c[nH]c(=S)n1[C@H]1CCc2c(F)cc(F)cc2C1 [Nepicastat hydrochloride] ?
96.6

Similarly, `COC1=C2C[C@@H](C)C[C@H](OC)[C@H](O)[C@@H](C)/C=C(\C)[C@H](OC(N)=O)[C@@H](OC)/C=C\C=C(/C)C(=O)NC(=CC1=O)C2=O` ?
24.4

Similarly, O=C1C(N(CO)C(=O)NCO)N(CO)C(=O)N1CO (stereo not given) ?
106

Similarly, CCOC(=O)CCC(=O)O[C@H]1[C@H](O[C@@H]2[C@@H](C)[C@H](O[C@H]3C[C@@](C)(OC)[C@@H](O)[C@H](C)O3)[C@@H](C)C(=O)O[C@H](CC)[C@@](C)(O)[C@H](O)[C@@H](C)C(=O)[C@H](C)C[C@@]2(C)O)O[C@H](C)C[C@@H]1N(C)C [Erythromycin Ethylsuccinate] ?
108

---
State the recorded cell viability for this entry: `Cc1cc(C)cc(C(=O)NOCCCCCC(=O)NO)c1`
4.57

Similarly, `COc1cnc(NS(=O)(=O)c2ccc(N)cc2)nc1` ?
98.9

Similarly, Nc1c2c(nc3ccccc13)CCCC2 [tacrine hydrochlorid] ?
112

Similarly, `CC1(C)O[C@H]1COc1c2ccoc2cc2oc(=O)ccc12` ?
97.6

Similarly, CC[C@H](Nc1ncnc2[nH]cnc12)c1oc2ccccc2c(=O)c1-c1cccc(F)c1 [Tenalisib (RP6530)] ?
98.2
